target-or-test-system: recombinant A2AR (human) (Homo sapiens, UniProt P29274)
Sequence (P29274 whole entry): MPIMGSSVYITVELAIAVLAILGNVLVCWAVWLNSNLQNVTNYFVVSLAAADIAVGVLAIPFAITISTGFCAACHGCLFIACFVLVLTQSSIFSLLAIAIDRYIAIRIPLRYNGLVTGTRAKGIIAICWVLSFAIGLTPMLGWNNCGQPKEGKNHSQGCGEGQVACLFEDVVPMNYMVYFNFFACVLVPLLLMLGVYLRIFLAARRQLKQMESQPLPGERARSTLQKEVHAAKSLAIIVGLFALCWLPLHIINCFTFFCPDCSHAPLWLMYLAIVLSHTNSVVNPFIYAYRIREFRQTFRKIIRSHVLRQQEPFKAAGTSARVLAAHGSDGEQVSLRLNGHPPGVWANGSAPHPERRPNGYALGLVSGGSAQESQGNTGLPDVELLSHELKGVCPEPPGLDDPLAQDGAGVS
assay-text: Competition radioligand binding, human A2AR
// pKi lookup, one value per entry
pKi is defined as minus the log10 of a concentration measured in mol/L.

Log: recombinant A2AR (human) (Homo sapiens, UniProt P29274), compound N#Cc1c(N)nc(SCc2ncc[nH]2)nc1-c1cccc(O)c1 [21f] , pKi = 7.02

Log: recombinant A2AR (human) (Homo sapiens, UniProt P29274), compound COc1cccc(-c2c(C#N)c(N)nc(SCc3cccc(C)n3)c2C#N)c1 [22b] , pKi = 7.15

Let's switch to this compound now.
Log: recombinant A2AR (human) (Homo sapiens, UniProt P29274), compound Cc1cccc(CSc2nc(N)c(C#N)c(-c3cccc(O)c3)n2)n1 [21e] , pKi = 7.03

Ref: paper PMC8327296
